Reference source for all entries: patent US20240116985A1

biological target: Bcat-Halo (UniProt P35222); test: NanoBRET Abs IC50, HEK293 cells; Bcat-Halo / TCF4-Luc engagement
Sequence (P35222 whole entry): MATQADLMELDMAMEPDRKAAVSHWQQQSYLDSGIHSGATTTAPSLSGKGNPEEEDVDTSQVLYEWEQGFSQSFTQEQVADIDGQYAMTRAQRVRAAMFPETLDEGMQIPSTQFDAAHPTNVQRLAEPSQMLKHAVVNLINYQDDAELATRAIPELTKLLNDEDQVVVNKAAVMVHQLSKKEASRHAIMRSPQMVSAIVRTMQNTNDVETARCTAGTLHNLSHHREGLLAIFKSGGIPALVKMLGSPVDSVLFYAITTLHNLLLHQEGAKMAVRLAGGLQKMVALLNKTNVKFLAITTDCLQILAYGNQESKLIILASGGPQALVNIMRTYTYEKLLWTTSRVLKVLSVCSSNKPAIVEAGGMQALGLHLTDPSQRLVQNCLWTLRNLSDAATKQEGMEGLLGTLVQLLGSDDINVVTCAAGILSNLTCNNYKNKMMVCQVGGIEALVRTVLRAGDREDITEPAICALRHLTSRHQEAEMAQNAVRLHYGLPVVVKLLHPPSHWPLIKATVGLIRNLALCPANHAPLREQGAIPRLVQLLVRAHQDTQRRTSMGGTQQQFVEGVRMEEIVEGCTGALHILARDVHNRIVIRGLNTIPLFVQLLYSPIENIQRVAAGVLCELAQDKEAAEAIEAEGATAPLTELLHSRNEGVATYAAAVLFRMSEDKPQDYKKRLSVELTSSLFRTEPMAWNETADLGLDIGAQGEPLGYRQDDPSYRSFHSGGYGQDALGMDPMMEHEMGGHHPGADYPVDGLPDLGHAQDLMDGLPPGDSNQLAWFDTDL
Starred links: 1 amine or outer side, 2 acyl side, 3 side chain; linkers in the order of their positions; H or OH if unused. Positions of bridges follow the written chain, without caps; N, C: chain ends. Non-standard residues stand in square brackets, D forms with d. Primed or numbered codes have the meaning given here. PyrS2″ = (S)-3-amino-1-((pent-4-en-1-yloxy)carbonyl)pyrrolidine-3-carboxylic acid (stapling residue), C=CCCCOC(=O)N1CC[C@@](N[*:1])(C(=O)[*:2])C1; B5(5) = 2,2-bis(4-pentenyl)glycine, 2-amino-2-(pent-4-en-1-yl)hept-6-enoic acid (stitching residue), C=CCCCC(CCCC=C)(N[*:1])C(=O)[*:2]; Phe(3-COOH) = N[C@@H](Cc1cccc(C(=O)O)c1)C(=O)O; Phe(2-CF3) = N[C@@H](Cc1ccccc1C(F)(F)F)C(=O)O; Bta = N[C@@H](Cc1csc2ccccc12)C(=O)O; αAllylPro = C=CC[C@@]1(C(=O)O)CCCN1; tBuAla = CC(C)(C)C[C@H](N)C(=O)O; Aib = CC(C)(N)C(=O)O
endpoint: IC50 (nM)
Answer with a number only, understood to be in nM.

So, Ac-[αAllylPro]D[tBuAla][B5(5)]D[Phe(3-COOH)]AAFL[PyrS2″][Phe(2-CF3)][Bta]QL[Aib]-NH2 (staple 1-4, 4-11) [I-2386] ? Its IC50 was 2800
